# Lookup of reported kinase still bound, per cent of control keyed by entry
Tested on: PIK3CA (human), P42336 [E542K]
Sequence (P42336 whole entry E542K, looked up): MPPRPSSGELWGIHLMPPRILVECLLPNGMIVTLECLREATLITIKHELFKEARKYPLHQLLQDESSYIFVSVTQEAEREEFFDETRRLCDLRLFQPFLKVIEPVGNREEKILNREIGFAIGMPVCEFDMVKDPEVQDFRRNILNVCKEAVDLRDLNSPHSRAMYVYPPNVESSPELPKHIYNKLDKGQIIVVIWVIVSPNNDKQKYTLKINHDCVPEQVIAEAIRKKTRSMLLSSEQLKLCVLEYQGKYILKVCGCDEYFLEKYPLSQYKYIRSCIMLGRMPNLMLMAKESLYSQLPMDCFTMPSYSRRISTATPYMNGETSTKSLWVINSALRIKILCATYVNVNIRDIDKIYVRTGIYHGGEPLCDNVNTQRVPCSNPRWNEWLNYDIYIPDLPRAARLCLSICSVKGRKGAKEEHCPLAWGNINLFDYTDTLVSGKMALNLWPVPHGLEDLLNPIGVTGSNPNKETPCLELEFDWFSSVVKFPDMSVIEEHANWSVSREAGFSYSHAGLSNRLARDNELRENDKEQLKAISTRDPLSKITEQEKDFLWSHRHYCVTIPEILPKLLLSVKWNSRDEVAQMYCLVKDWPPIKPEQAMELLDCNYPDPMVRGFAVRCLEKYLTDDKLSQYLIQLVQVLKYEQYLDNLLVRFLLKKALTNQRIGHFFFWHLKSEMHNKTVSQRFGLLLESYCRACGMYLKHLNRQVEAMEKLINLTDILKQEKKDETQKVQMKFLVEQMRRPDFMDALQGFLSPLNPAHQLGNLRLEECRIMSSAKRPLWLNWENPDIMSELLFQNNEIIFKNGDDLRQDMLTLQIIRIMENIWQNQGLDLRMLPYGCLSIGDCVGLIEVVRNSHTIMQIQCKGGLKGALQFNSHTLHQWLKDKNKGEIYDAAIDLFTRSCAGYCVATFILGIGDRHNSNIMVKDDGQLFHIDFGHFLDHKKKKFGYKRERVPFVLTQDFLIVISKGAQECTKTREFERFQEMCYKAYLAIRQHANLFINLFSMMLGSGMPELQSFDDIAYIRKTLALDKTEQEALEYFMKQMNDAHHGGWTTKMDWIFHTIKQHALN
Assay: KINOMEscan competition binding
Details: compound 10.0 µM
Your answer is read as %, so omit the unit and give the number.

Cc1ccc(NC(=O)c2cccc(C(C)(C)C#N)c2)cc1Nc1ccc2ncn(C)c(=O)c2c1 | 100

Query: Give kinase still bound, per cent of control (PIK3CA (human), P42336 [E542K]) of the following compound: COc1cc(N2CCN(C)CC2)ccc1Nc1nc(N)c(C(=O)c2c(Cl)cccc2Cl)s1
Result: 100

Query: Similarly, CS(=O)(=O)N1CCN(Cc2cc3nc(-c4cccc5[nH]ncc45)nc(N4CCOCC4)c3s2)CC1 ?
Result: 0.45

Query: Similarly, N#CCNC(=O)c1ccc(-c2ccnc(Nc3ccc(N4CCOCC4)cc3)n2)cc1 ?
Result: 100

Query: Similarly, O=c1cc(N2CCOCC2)oc2c(-c3cccc4c3sc3ccccc34)cccc12 ?
Result: 27

Query: Similarly, CCN1CCN(C(=O)Cc2ccc(Nc3ncc(F)c(Nc4ccc(C(=O)Nc5ccccc5Cl)cc4)n3)cc2)CC1 ?
Result: 84

Query: Similarly, OCCCNc1cc(-c2ccnc(Nc3cccc(Cl)c3)n2)ccn1 ?
Result: 100

Query: Similarly, CCOc1cc(N2CCC(O)CC2)ccc1Nc1ncc2c(n1)N(C)c1ccccc1C(=O)N2C ?
Result: 100

Query: Similarly, CCC(=O)N1CCN(c2ccc(-n3c(=O)ccc4cnc5ccc(-c6cnc7ccccc7c6)cc5c43)cc2C(F)(F)F)CC1 ?
Result: 1
